Molecular target: NAMPT (Homo sapiens, UniProt P43490)
Construct: His tag; host or cells: E. coli
Sequence (P43490 whole entry): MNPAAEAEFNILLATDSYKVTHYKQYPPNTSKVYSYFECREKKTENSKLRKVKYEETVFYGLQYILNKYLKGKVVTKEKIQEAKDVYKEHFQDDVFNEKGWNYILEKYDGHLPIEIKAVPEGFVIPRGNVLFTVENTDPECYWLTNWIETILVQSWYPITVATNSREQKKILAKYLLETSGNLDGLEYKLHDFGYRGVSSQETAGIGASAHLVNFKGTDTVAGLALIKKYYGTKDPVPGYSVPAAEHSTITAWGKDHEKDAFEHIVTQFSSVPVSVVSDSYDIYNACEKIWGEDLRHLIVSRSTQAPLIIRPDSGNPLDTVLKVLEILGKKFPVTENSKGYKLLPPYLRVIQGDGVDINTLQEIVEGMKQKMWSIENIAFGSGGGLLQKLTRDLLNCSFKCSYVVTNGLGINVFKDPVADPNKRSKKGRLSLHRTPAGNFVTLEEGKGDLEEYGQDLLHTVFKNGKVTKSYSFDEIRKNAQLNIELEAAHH
Assay: Biochemical inhibition assay: NAMPT enzymatic reaction, NMN quantified by mass spectrometry
Conditions: NAMPT enzymatic assay; read-out: Biochem IC50
# if measured IC50 < 5 nM: Y  # else: N

Quick check: does COc1ccc2cc(S(=O)(=O)c3ccc(CNC(=O)c4ccc5nccn5c4)cc3)ccc2c1 have IC50 under 5 nM?
Y

Quick check: does COc1ccc(NS(=O)(=O)c2ccc(CNC(=O)c3cc4cnccc4[nH]3)cc2)c(OC)c1 have IC50 under 5 nM?
N

Quick check: does CCS(=O)(=O)c1cccc(S(=O)(=O)c2ccc(CNC(=O)c3cc4ccncc4s3)cc2)c1 have IC50 under 5 nM?
Y

Quick check: does O=C(NCc1ccc(S(=O)(=O)c2cccc(N3CCCCC3)c2)cc1)c1cc2ccncc2s1 have IC50 under 5 nM?
N

* * *

Biological target: NAMPT (Homo sapiens, UniProt P43490)
Construct: His tag; host or cells: E. coli
Test: Biochemical inhibition assay: NAMPT enzymatic reaction, NMN quantified by mass spectrometry
Conditions: NAMPT enzymatic reaction; read-out: Biochem IC50
pIC50: −log10 of the molar value.
Decide by pIC50: equal to or exceeding 7 means Satisfied, less means Not satisfied.

Take a look at these entries with their results.
CCOc1cc(F)ccc1S(=O)(=O)c1ccc(CNC(=O)c2cc3ccncc3s2)cc1	Satisfied
Cn1c(C(=O)NCc2ccc(S(=O)(=O)c3ccccc3)cc2)cc2cnccc21	Not satisfied
O=C(NCc1ccc(S(=O)(=O)c2ccc(F)cc2)cc1)c1ccc2nccn2c1	Satisfied

Record CS(=O)(=O)c1ccccc1S(=O)(=O)c1ccc(CNC(=O)c2cnc3[nH]ncc3c2)cc1 ; criterion: pIC50 no lower than 7. Met?
Not satisfied

Record Cc1ccc(C)c(S(=O)(=O)c2ccc(CNC(=O)c3cc4cnccc4[nH]3)cc2)c1 ; criterion: pIC50 no lower than 7. Met?
Satisfied

Record O=C(NCc1ccc(S(=O)(=O)Nc2ccccc2Oc2ccccc2)cc1)c1cc2cnccc2[nH]1 ; criterion: pIC50 no lower than 7. Met?
Not satisfied

Record COc1c(C)cc(S(=O)(=O)c2ccc(CNC(=O)c3cnc4[nH]ncc4c3)cc2)cc1C ; criterion: pIC50 no lower than 7. Met?
Satisfied

Record N#Cc1ccccc1S(=O)(=O)c1ccc(CNC(=O)c2cc3ccncc3o2)cc1 ; criterion: pIC50 no lower than 7. Met?
Satisfied

* * *

Target: NAMPT (Homo sapiens, UniProt P43490)
Construct: His tag; host or cells: E. coli
Test: Biochemical inhibition assay: NAMPT enzymatic reaction, NMN quantified by mass spectrometry
Settings: NAMPT enzymatic reaction; read-out: Biochem IC50
measured endpoint: log10 of IC50 (log10 of the value in nM)
// stored as log10 of IC50 expressed in nM

// known answers, use as guide
CCOc1cccc(S(=O)(=O)c2ccc(CNC(=O)c3cnc4nccn4c3)cc2)c1	0.32
Cc1cc(F)ccc1S(=O)(=O)c1ccc(CNC(=O)c2cc3cnccc3[nH]2)cc1	1.28
O=C(NCc1ccc(S(=O)(=O)c2cccc(F)c2Cl)cc1)c1cnc2[nH]ncc2c1	1.87
O=C(NCC1CCN(S(=O)(=O)c2ccccc2)CC1)c1cc2cnccc2[nH]1	1.18
COc1cccc(S(=O)(=O)c2ccc(CNC(=O)c3cc4cnccc4[nH]3)cc2)c1	0.85
O=C(NCc1ccc(S(=O)(=O)N2CCCCC2)cc1)c1ccc2nccn2c1	1.26
O=C(NCc1ccc(S(=O)(=O)c2cccc(Cl)c2F)cc1)c1cc2ccncc2o1	1.04
COc1ccc(S(=O)(=O)c2ccc(CNC(=O)c3cnc4[nH]ncc4c3)cc2)cc1OC	1.31
O=C(NCc1ccc(S(=O)(=O)c2cccc(Cl)c2)cc1)c1cc2ccncc2s1	0.70

In the following, a different compound is considered.
Report log10 of IC50 for N#Cc1cccc(S(=O)(=O)c2ccc(CNC(=O)c3cc4ccncc4o3)cc2)c1 tested on NAMPT (Homo sapiens, UniProt P43490).
1.19

* * *

Listed next: entries and their corresponding IC50.
Molecular target: NAMPT (Homo sapiens)
Construct: His tag; host or cells: E. coli
Assay: Biochemical inhibition assay: NAMPT enzymatic reaction, NMN quantified by mass spectrometry
Settings: NAMPT enzymatic assay; read-out: Biochem IC50
Could you give me the number in nM? Just the number is fine.

O=C(NCc1ccc(S(=O)(=O)c2cc(C(F)(F)F)ccc2Cl)cc1)c1cnc2nccn2c1	7

Report IC50 for Cn1ncc2ccc(S(=O)(=O)c3ccc(CNC(=O)c4cnc5[nH]ncc5c4)cc3)cc21 please.
4

* * *

Biological target: NAMPT (Homo sapiens)
Construct: His tag; host or cells: E. coli
Assay: Biochemical inhibition assay: NAMPT enzymatic reaction, NMN quantified by mass spectrometry
Conditions: NAMPT enzymatic assay; read-out: Biochem IC50
Listed next: entries and their corresponding pIC50.
The scale used: pIC50 is minus the common logarithm of the concentration in molar units.

// known answers, use as guide
Cn1ncc(S(=O)(=O)c2ccc(CNC(=O)c3cnc4nccn4c3)cc2)c1C(F)(F)F	8.40
Cn1ncc2c(S(=O)(=O)c3ccc(CNC(=O)c4cc5cnccc5[nH]4)cc3)cccc21	8.51
O=C(NCc1ccc(S(=O)(=O)c2cncc3ccccc23)cc1)c1cnc2[nH]ncc2c1	8.43
O=C(NCc1ccc(S(=O)(=O)c2cccc(N3CCOCC3)c2)cc1)c1ccc2nccn2c1	8.11

In the following, a different compound is considered.
Report pIC50 for CN(C)Cc1cccc(S(=O)(=O)c2ccc(CNC(=O)c3cnc4nccn4c3)cc2)c1 please.
8.36

* * *

Target: NAMPT (Homo sapiens)
Construct: His tag; host or cells: E. coli
Assay: Biochemical inhibition assay: NAMPT enzymatic reaction, NMN quantified by mass spectrometry
Details: NAMPT enzymatic reaction; read-out: Biochem IC50
pIC50: −log10 of the molar value.
Decide by pIC50: equal to or exceeding 8 means MET, less means NOT MET.

Cc1ccc(S(=O)(=O)c2ccc(CNC(=O)c3ccc4nccn4c3)cc2)c(Cl)c1	MET
Cc1ccc(Cl)c(S(=O)(=O)c2ccc(CNC(=O)c3cc4cnccc4[nH]3)cc2)c1	NOT MET
Cc1cccc(S(=O)(=O)c2ccc(CNC(=O)c3ccc4nccn4c3)cc2)c1C	NOT MET
COc1ccc(S(=O)(=O)c2ccc(CNC(=O)c3cc4ccncc4s3)cc2)c(Cl)c1	MET
Cc1cccc(S(=O)(=O)c2ccc(CNC(=O)c3cc4ccncc4o3)cc2)c1	MET
CCCCOc1ccc(S(=O)(=O)c2ccc(CNC(=O)c3cc4ccncc4s3)cc2)cc1Cl	MET

Record COc1c(Cl)ccc(S(=O)(=O)c2ccc(CNC(=O)c3cc4ccncc4o3)cc2)c1Cl ; criterion: pIC50 no lower than 8. Met?
NOT MET

Record CC(=O)c1cccc(S(=O)(=O)c2ccc(CNC(=O)c3cc4ccncc4s3)cc2)c1 ; criterion: pIC50 no lower than 8. Met?
MET

Record CCCOc1ccc(S(=O)(=O)c2ccc(CNC(=O)c3ccc4nccn4c3)cc2)cc1F ; criterion: pIC50 no lower than 8. Met?
NOT MET

Record Cc1cc(-n2cccn2)ccc1S(=O)(=O)c1ccc(CNC(=O)c2cc3cnccc3[nH]2)cc1 ; criterion: pIC50 no lower than 8. Met?
MET

Record O=C(NCc1ccc(S(=O)(=O)c2ccccc2)cc1)c1cnc2[nH]ncc2c1 ; criterion: pIC50 no lower than 8. Met?
NOT MET

* * *

Target: NAMPT (Homo sapiens, UniProt P43490)
Construct: His tag; host or cells: E. coli
Test: Biochemical inhibition assay: NAMPT enzymatic reaction, NMN quantified by mass spectrometry
Details: NAMPT enzymatic assay; read-out: Biochem IC50
# if measured IC50 < 5 nM: Condition met  # else: Condition not met

Take a look at these entries with their results.
O=C(NCc1ccc(S(=O)(=O)c2cnc3ccccc3c2)cc1)c1cnc2nccn2c1	Condition met
O=C(NCc1ccc(S(=O)(=O)c2cncc(Cl)c2)cc1)c1cnc2[nH]ncc2c1	Condition not met
Cn1ncc2ccc(S(=O)(=O)c3ccc(CNC(=O)c4cnc5nccn5c4)cc3)cc21	Condition met
O=C(NCc1ccc(S(=O)(=O)c2ccccc2CN2CCOCC2)cc1)c1ccc2nccn2c1	Condition not met
O=C(NCc1ccc(S(=O)(=O)c2ccc(OCC(F)(F)F)c(F)c2)cc1)c1cc2ccncc2o1	Condition not met

Quick check: does O=C(NCc1ccc(S(=O)(=O)c2cccc3c2oc2ccccc23)cc1)c1cnc2[nH]ncc2c1 have IC50 under 5 nM?
Condition not met

Quick check: does O=C(NCc1ccc(S(=O)(=O)c2ccc(Cn3ccnc3)cc2)cc1)c1cc2ccncc2s1 have IC50 under 5 nM?
Condition not met

Quick check: does O=C(NCc1ccc(S(=O)(=O)c2ccc(C(F)(F)F)c(F)c2)cc1)c1cc2ccncc2o1 have IC50 under 5 nM?
Condition not met

Quick check: does O=C(NCc1ccc(S(=O)(=O)c2cccc3c2sc2ccccc23)cc1)c1cc2cnccc2[nH]1 have IC50 under 5 nM?
Condition met

Quick check: does O=C(NCc1ccc(S(=O)(=O)c2ccc3c(c2)OCO3)cc1)c1cnc2nccn2c1 have IC50 under 5 nM?
Condition met

Quick check: does CN(C)c1ccc(S(=O)(=O)c2ccc(CNC(=O)c3cnc4nccn4c3)cc2)cn1 have IC50 under 5 nM?
Condition met

Quick check: does CC(C)COc1cccc(S(=O)(=O)c2ccc(CNC(=O)c3cnc4nccn4c3)cc2)c1 have IC50 under 5 nM?
Condition met

Quick check: does COc1ccc2cc(S(=O)(=O)c3ccc(CNC(=O)c4cc5ccncc5s4)cc3)ccc2c1 have IC50 under 5 nM?
Condition met

All figures here come from patent US12336981B2.
